B1: CLK3 (parent)
chain: FGEDYYGPSRSRHRRRSRERGPYR

variants of: B1; assay: protein stability index of a GFP-peptide fusion (GPS, HEK-293T) (PSI 1-6); higher = more stable; conditions: c terminus: a fixed tail appended;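 also: lentivirally expressed fusions sorted by FACS into six bins by GFP to DsRed ratio, PSI derived from sequencing read proportions per bin multiplied by bin number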
Tick T if protein stability index is 2 or greater. Tick F if protein stability index is less than 2.

Sample answers from the record:
Task: Kindly determine if protein stability index recorded for R18C is above or exactly 2.
Result: T

Task: Kindly determine if protein stability index recorded for R10P is above or exactly 2.
Result: T

Task: Reported protein stability index at or above 2? R10D
Result: T

Task: Form field: protein stability index at least 2? Entry: Y5V
Result: T

Task: Entry R20H : is its protein stability index no less than 2?
Result: T

Task: Could you please find out whether G7L has protein stability index that meets 2 or exceeds it?
Result: T

Task: protein stability index >= 2 for R20I ?
Result: T

Task: Determine whether this variant has protein stability index no lower than 2: R24I
Result: T

***
Task: Reported protein stability index at or above 2? S11R
Result: T

Task: Hi team, for R18I , is the recorded protein stability index at or above 2?
Result: T

Task: Confirm if protein stability index reported for the variant P8D is 2 or above.
Result: F

Task: Test whether the variant S9Q records protein stability index of 2 or higher.
Result: T

Task: Item Y23F with protein stability index of 2 or above?
Result: F

Task: Hi, just wondering whether Y6G shows protein stability index of 2 or higher.
Result: T

Task: Can G2S be said to have protein stability index at or above 2?
Result: T

Task: Evaluate R15D : protein stability index at minimum 2?
Result: T

Task: Please check the record S17W and state if its protein stability index is at or above 2.
Result: T

Task: Textbook exercise: given the entry E19C , state whether its protein stability index is greater than or equal to 2.
Result: T

Task: Assess whether reported protein stability index for P8F sits at 2 or higher.
Result: F

Reference source for all entries: the supplement of paper PMC10567573
